test system: HeLa Kyoto; assay: thermal stability score vs G1/S (z-score of summed log2 fold changes over temperatures); higher = more thermally stable than in G1/S; conditions: cell cycle stage: early G1 (4.5 h after nocodazole release);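 also: synchronized HeLa Kyoto cells, proteins quantified by TMT10plex mass spectrometry, three biological replicates, mitosis taken 0.5 h after nocodazole release, G1/S directly after double thymidine block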
parameter: thermal stability score
Just the number, please.

These recorded examples may help you get a feel for the data.
thermal stability score reading for MSSLIRRVISTAKAPGAIGPYSQAVLVDRTIYISGQIGMDPSSGQLVSGGVAEEAKQALKNMGEILKAAGCDFTNVVKTTVLLADINDFNTVNEIYKQYFKSNFPARAAYQVAALPKGSRIEIEAVAIQGPLTTASL [HRSP12] : -1.03

thermal stability score reading for MFISLWEFFYGHFFRFWMKWLLRQMTGKCELQRIFDTYVGAQRTHRIENSLTYSKNKVLQKATHVVQSEVDKYVDDIMKEKNINPEKDASFKICMKMCLLQITGYKQLYLDVESVRKRPYDSDNLQHEELLMKLWNLLMPTKKLNARISKQWAEIGFQGDDPKTDFRGMGILGLINLVYFSENYTSEAHQILSRSNHPKLGYSYAIVGINLTEMAYSLLKSEALKFHLYNLVPGIPTMEHFHQFYCYLVYEFDKFWFEEEPESIMYFNLYREKFHEKIKGLLLDCNVALTLKV [ELMOD2] : -0.373

Next:
thermal stability score reading for METRYNLKSPAVKRLMKEAAELKDPTDHYHAQPLEDNLFEWHFTVRGPPDSDFDGGVYHGRIVLPPEYPMKPPSIILLTANGRFEVGKKICLSISGHHPETWQPSWSIRTALLAIIGFMPTKGEGAIGSLDYTPEERRALAKKSQDFCCEGCGSAMKDVLLPLKSGSDSSQADQEAKELARQISFKAEVNSSGKTISESDLNHSFSLTDLQDDIPTTFQGATASTSYGLQNSSAASFHQPTQPVAKNTSMSPRQRRAQQQSQRRLSTSPDVIQGHQPRDNHTDHGGSAVLIVILTLALAALIFRRIYLANEYIFDFEL [UBE2J1] : -0.0441
